# System: T1, huCD33-G69-Fc recombinant protein (human, UniProt P20138 18-259);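 further: biolayer interferometry: scFvs captured from periplasmic extracts on anti-V5-loaded streptavidin biosensors, antigen association for 2 min, buffer dissociation for 5 min, 1:1 Langmuir fit giving off-rate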
# T1 construct: extracellular domain; also called CD33 R69G
# T1 sequence (P20138 18-259 R69G): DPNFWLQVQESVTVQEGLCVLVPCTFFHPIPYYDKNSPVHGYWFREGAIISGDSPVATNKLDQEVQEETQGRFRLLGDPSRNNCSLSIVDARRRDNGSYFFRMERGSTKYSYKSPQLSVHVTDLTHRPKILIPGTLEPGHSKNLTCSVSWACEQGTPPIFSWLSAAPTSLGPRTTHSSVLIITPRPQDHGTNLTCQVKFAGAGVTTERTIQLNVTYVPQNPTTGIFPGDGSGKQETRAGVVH
# Method description: BLI

{"Binder": "Polypeptide No. 92 (scFv, V domains shown, scFv) VH: QVQLVQSGAEVKKPGASVKVSCKASGYTFTNHYMHWVRQAPGQGLEWMGIINPSGGSTSYAQKFQGRVTMTRDTSTSTVYMELSSLRSEDTAVYYCASAEVGATHYGMDVWGQGTTVTVSS VL: DIVMTQSPLSLPVTPGEPASISCRSSQSLLHSNGYNYLDWYLQKPGQSPQLLIYAASSLQSGVPDRFSGSGSGTDFTLKISRVEAEDVGVYYCMQALHPPTFGQGTKVEIKR", "binding result": "binds"}
{"Binder": "Polypeptide No. 134 (scFv, V domains shown, scFv) VH: QVQLVQSGAEVKKPGASVKVSCKASGYTFDSYLLHWVRQAPGQGLEWMGMINPSGAGTTYAQKFQGRVTMTRDTSTSTVYMELSSLRSEDTAVYYCAKEGSIAAGYYFDSWGQGTLVTVSS VL: DIQMTQSPSSLSASVGDRVTITCRASQSIDSWLAWYQQKPGKAPKLLIYAASSLQSGVPSRFSGSGSGTDFTLTISSLQPEDFATYYCQQSYTTPITFGGGTKVEIKR", "binding result": "binds"}
